Target: T1, PACAP27 (human, L at residue 27 modified by C-terminal amidation)
T1 peptide: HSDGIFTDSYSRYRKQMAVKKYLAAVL
Assay: cell-based or functional assay
observable: Inhibition (IC50) of PACAP27 (800 pM) induced cAMP in hVPAC2 CHO-K1 cells
Note: unit pM is implicit; provide only the numeric part.

Solved entries:
binder | value
Exemplified Antibody D (antibody, human IgG4 S228P, kappa, F234A L235A, V domains shown, IgG4, kappa light chain; also called Exemplified Ab D; Ab D) VH: EVQLLESGGGLVQPGGSLRLSCAASGFTFSSYYMSWVRQAPGKGLEWVSAISLSGGSTYYAQSHKGRFTISRDNSKNTLYLQMNSLRAEDTAVYYCVREVGASTHNYYGMDVWGQGTMVTVSS VL: DIQMTQSPSSLSASVGDRVTITCRASQSIWRWLAWYQQKPGKAPKLLIHDASQLFEGVPSRFSGSGSGTDFTFTISSLQPEDIATYYCQQFDLLPLTFGGGTKVEIKR | 515
Exemplified Antibody B (antibody, human IgG4 S228P, kappa, F234A L235A, V domains shown, IgG4, kappa light chain; also called Exemplified Ab B; Ab B) VH: EVQLLESGGGLVQPGGSLRLSCAASGFTFSSYYMSWVRQAPGKGLEWVSAISLSGGSTYYAASHKGRFTISRDNSKNTLYLQMNSLRAEDTAVYYCVREVGASTHNYYGMDVWGQGTMVTVSS VL: DIQMTQSPSSLSASVGDRVTITCRASQSIWRWLAWYQQKPGKAPKLLIHDASQLFEGVPSRFSGSGSGTDFTFTISSLQPEDIATYYCQQFDLLPLTFGGGTKVEIKR | 605
Exemplified Antibody A (antibody, human IgG4 S228P, kappa, F234A L235A, V domains shown, IgG4, kappa light chain; also called Exemplified Ab A; Ab A) VH: EVQLLESGGGLVQPGGSLRLSCAASGFTFSSYYMSWVRQAPGKGLEWVSAISLSGGSTYYADSHKGRFTISRDNSKNTLYLQMNSLRAEDTAVYYCVREVGASNHNYYGMDVWGQGTMVTVSS VL: DIQMTQSPSSLSASVGDRVTITCRASQSISRWLAWYQQKPGKAPKLLIHDASQLLEGVPSRFSGSGSGTDFTFTISSLQPEDIATYYCQQFDLLPLTFGGGTKVEIKR | 781

Proceed to the following item.
Please give the measured Inhibition (IC50) of PACAP27 (800 pM) induced cAMP in hVPAC2 CHO-K1 cells for this binder: Exemplified Antibody C (antibody, human IgG4 S228P, kappa, F234A L235A, V domains shown, IgG4, kappa light chain; also called Exemplified Ab C; Ab C) VH: EVQLLESGGGLVQPGGSLRLSCAASGFTFSSYYMSWVRQAPGKGLEWVSAISLSGGSTYYAESHKGRFTISRDNSKNTLYLQMNSLRAEDTAVYYCVREVGASTHNYYGMDVWGQGTMVTVSS VL: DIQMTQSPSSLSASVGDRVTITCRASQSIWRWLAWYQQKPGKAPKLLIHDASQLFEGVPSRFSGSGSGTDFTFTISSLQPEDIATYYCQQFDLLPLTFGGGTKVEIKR
595
